- Measurement Target: SXc− (Homo sapiens, UniProt Q9UPY5)
- Sequence (Q9UPY5 1-501): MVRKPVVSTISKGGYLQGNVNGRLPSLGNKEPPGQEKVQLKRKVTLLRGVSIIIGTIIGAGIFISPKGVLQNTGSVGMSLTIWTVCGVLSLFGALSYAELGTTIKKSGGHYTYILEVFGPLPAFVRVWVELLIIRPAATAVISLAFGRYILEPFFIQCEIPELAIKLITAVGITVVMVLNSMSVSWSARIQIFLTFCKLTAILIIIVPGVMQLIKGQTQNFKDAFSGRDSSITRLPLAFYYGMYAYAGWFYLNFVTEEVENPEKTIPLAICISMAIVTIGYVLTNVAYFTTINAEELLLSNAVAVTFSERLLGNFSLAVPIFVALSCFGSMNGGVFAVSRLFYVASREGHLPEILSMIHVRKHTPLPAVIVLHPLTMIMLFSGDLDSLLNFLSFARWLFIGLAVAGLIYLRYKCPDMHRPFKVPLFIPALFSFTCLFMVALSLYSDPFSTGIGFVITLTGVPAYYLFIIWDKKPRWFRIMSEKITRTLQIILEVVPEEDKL
- Sequence (P08195 1-529 partner): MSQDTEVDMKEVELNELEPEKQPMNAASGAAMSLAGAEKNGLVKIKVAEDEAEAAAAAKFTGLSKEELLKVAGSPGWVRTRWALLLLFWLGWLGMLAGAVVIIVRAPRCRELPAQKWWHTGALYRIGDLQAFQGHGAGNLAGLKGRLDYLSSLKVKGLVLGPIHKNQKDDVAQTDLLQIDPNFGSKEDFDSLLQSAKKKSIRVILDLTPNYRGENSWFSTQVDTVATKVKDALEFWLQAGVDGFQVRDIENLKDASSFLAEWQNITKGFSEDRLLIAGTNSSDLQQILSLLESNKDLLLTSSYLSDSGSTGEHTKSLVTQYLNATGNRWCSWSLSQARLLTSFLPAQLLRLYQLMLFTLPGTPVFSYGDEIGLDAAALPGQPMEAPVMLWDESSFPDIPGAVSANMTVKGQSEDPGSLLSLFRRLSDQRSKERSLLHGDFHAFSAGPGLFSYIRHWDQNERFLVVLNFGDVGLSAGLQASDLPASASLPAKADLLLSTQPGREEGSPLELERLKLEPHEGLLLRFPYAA
- Method Description: Inhibition of SXc−-mediated uptake of 3H-L-Glu into SNB19 cells
- Assay type: cell-based
- Cond: read-out: IC50 for the inhibition of SXc−-mediated uptake of 3H-L-Glu into SNB19 cells; Mean ± SEM (n ≥ 3); single concentration of L-Glu (100 μM); Na+-free buffer, 5 min, 30°C
Readout Name: IC50 (µM)

1 = O=S(=O)(O)c1cc(O)c2c(O)c(N=Nc3ccccc3)c(S(=O)(=O)O)cc2c1
2 = O=C(O)c1cc(N=Nc2ccc([N+](=O)[O-])cc2)ccc1O
3 = Nc1cc(S(=O)(=O)O)cc2cc(S(=O)(=O)O)c(N=Nc3cc([N+](=O)[O-])cc(Cl)c3O)c(O)c12
Query block: Reorder the items by IC50, least to greatest. Put the labels in the order asked and list them.
Result block: 1, 2, 3

I = O=[N+]([O-])c1ccc(N=Nc2c(S(=O)(=O)O)cc3cc(S(=O)(=O)O)cc(O)c3c2O)cc1
II = O=C(O)c1cc(N=Nc2cccc([N+](=O)[O-])c2)ccc1[O-].[Na+]
Query block: Would you kindly point out which of I and II has the smaller IC50 figure? State your choice using its label.
Result block: II
(II: 30 µM, I: 130 µM)

meta.source: paper PMC10688270
